target: 5-HT2A receptor (Homo sapiens, UniProt P28223); construct: host or cells: HEK-293 cells (membrane preparation); experiment: biochemical; type: binding; conditions: 1 nM [3H]ketanserin; membranes containing 5-HT2A; SPA
Sequence (P28223 whole entry): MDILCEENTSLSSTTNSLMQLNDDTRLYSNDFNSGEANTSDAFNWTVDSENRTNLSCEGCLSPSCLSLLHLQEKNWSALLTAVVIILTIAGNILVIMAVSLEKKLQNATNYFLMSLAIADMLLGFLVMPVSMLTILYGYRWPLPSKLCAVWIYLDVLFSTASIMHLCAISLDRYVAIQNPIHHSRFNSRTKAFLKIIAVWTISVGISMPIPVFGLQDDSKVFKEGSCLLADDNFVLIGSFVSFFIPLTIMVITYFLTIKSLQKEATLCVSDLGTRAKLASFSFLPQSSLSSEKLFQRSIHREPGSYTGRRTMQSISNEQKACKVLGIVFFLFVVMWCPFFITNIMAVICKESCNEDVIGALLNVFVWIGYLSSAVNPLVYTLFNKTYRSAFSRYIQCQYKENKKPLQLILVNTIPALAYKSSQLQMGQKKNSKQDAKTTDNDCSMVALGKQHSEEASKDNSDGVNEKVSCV
Quick reference: Ki of the listed items.
property_name: Ki (µM)

| compound | property_name | unit_info | data_value |
| --- | --- | --- | --- |
| CCOc1c(OC)cc(CCN)cc1OC | Ki | µM | 61 |
| O=C(CCc1ccc2c(c1)OCO2)N1CCCC1 | Ki | µM | 152 |
| CCN(CC)C/C=C/c1ccc2c(c1)OCO2 | Ki | µM | 21 |
| COc1cc(CCN)c(OC)cc1Br [2C-B, reference compound] | Ki | µM | 0.414 |
| C/C(=C\c1ccc2c(c1)OCO2)CN1CCCC1 | Ki | µM | 7 |

====

target: norepinephrine transporter (NET) (Homo sapiens); construct: host or cells: CHO cells (membrane preparation); assay: Eurofins Cerep competition binding assay at norepinephrine transporter; conditions: read-out: NET, percent of control-specific binding
Sequence (P23975 whole entry): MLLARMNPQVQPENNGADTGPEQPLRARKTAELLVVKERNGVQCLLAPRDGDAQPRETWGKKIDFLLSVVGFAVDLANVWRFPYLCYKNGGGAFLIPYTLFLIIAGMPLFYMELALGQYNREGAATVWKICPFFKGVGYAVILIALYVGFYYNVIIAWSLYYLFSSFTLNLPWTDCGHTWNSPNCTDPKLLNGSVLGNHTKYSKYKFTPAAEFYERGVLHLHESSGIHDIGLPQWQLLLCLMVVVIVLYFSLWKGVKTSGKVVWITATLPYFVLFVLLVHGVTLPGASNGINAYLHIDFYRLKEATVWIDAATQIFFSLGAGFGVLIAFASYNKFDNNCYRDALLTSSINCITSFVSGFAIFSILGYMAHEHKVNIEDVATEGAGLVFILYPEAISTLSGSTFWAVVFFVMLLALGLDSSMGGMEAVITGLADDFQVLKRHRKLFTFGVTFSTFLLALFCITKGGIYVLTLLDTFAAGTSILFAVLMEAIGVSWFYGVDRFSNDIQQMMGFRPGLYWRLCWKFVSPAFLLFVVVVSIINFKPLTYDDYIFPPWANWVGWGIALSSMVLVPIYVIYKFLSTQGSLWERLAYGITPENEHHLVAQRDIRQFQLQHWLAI
Entries and their inhibition at 10 µM
property_name: inhibition at 10 µM

| compound_smiles | property_name | data_value |
| --- | --- | --- |
| Brc1cc2c(cc1CCCN1CCCC1)OCO2 | inhibition at 10 µM | 0% |
| c1cc2c(cc1CCCN1CCCC1)OCO2 | inhibition at 10 µM | 3% |
| O=C(CCc1cc2c(cc1Br)OCO2)N1CCCC1 | inhibition at 10 µM | 0% |
| CCN(CC)C/C=C/c1ccc2c(c1)OCO2 | inhibition at 10 µM | 17% |
| C/C(=C\c1ccc2c(c1)OCO2)CN1CCCC1 | inhibition at 10 µM | 43% |
| O=C(CCc1ccc2c(c1)OCO2)N1CCCC1 | inhibition at 10 µM | 0% |

====

Below, each entry is listed with its recorded inhibition at 10 µM.
biological target: 5-HT2B receptor (Homo sapiens, UniProt P41595); construct: host or cells: CHO cells (membrane preparation); assay: Eurofins Cerep competition binding assay at 5-HT2B receptor; details: 10 μM test ligand; [3H]mesulergine; recombinant receptor in CHO cells; read-out: HT2B, percent of control-specific binding
Sequence (P41595 whole entry): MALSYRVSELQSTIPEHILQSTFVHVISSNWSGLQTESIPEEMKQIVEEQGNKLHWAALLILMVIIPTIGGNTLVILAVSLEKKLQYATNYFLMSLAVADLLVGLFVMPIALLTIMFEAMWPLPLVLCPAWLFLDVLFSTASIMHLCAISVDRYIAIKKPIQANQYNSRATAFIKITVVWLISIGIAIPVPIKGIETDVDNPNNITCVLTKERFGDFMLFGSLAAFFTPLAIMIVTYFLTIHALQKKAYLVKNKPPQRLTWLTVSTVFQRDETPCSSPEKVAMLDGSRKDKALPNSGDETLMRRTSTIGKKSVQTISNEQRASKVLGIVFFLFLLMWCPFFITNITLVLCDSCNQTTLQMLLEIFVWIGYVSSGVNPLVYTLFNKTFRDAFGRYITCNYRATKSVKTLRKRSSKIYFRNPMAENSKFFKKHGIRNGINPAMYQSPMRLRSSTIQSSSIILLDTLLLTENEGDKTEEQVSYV
property_name: inhibition at 10 µM (%)

| compound | data_value |
| --- | --- |
| Brc1cc2c(cc1CCCN1CCCC1)OCO2 [C(IV)] | 73 |
| c1cc2c(cc1CCCN1CCCC1)OCO2 [C(III)] | 47 |
| CCN(CC)C/C=C/c1ccc2c(c1)OCO2 [D(I)] | 58 |
| C/C(=C\c1ccc2c(c1)OCO2)CN1CCCC1 [B(II)] | 87 |
| O=C(CCc1ccc2c(c1)OCO2)N1CCCC1 [F(III)] | 13 |
| O=C(CCc1cc2c(cc1Br)OCO2)N1CCCC1 [F(IV)] | 26 |

====

molecular target: 5-HT2A receptor (Homo sapiens); construct: host or cells: HEK-293 cells (membrane preparation); assay: biochemical; type: binding; settings: 10 μM test molecule; [125I](±)DOI; recombinant receptor in HEK-293 cells; read-out: HT2A, percent of control-specific binding
# class assignment by measured inhibition at 10 µM: low: < 40%; medium: ≥ 40% and < 80%; high: ≥ 80%

| compound_smiles | assigned_label |
| --- | --- |
| CCCOc1c(OC)cc(CCN)cc1OC | high |
| Brc1cc2c(cc1CCCN1CCCC1)OCO2 | medium |
| CN(C)CCCN1c2ccccc2CCc2ccccc21 | high |
| O=C(CCc1cc2c(cc1Br)OCO2)N1CCCC1 | low |
| CCN(CC)C/C=C/c1ccc2c(c1)OCO2 | low |
| Cc1ccc(Sc2ccccc2N2CCNCC2)c(C)c1 | high |
| C/C(=C\c1ccc2c(c1)OCO2)CN1CCCC1 | medium |
| N[C@@H](Cc1c[nH]c2ccccc12)C(=O)O | low |
| c1cc2c(cc1CCCN1CCCC1)OCO2 | low |
| O=C(CCc1ccc2c(c1)OCO2)N1CCCC1 | low |
| COc1ccc2cccc(CCNC(C)=O)c2c1 | medium |
| N#Cc1ccc2[nH]cc(CCCCN3CCN(c4ccc5oc(C(N)=O)cc5c4)CC3)c2c1 | high |

====

target: serotonin transporter (SERT) (Homo sapiens, UniProt P31645); construct: host or cells: CHO cells (membrane preparation); experiment: biochemical; assay type: binding; conditions: read-out: SERT, percent of control-specific binding
Sequence (P31645 whole entry): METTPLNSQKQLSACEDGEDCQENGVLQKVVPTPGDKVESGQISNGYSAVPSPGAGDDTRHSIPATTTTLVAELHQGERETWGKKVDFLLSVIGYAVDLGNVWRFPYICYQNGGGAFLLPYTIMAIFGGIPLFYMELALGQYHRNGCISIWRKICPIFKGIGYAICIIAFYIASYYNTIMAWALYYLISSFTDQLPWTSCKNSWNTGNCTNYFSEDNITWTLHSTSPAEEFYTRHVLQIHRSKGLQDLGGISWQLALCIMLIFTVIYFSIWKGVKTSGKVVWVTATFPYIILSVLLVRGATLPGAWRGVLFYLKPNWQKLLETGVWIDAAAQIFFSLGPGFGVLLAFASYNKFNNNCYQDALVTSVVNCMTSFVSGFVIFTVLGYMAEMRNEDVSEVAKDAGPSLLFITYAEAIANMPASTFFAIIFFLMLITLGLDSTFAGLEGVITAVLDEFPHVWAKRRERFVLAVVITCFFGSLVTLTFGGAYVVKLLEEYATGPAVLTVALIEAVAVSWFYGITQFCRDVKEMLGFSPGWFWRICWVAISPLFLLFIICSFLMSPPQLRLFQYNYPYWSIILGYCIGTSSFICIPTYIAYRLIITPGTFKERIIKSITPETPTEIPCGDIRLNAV

| compound_smiles | unit_info | inhibition at 10 µM |
| --- | --- | --- |
| C/C(=C\c1ccc2c(c1)OCO2)CN1CCCC1 | % | 95 |
| Brc1cc2c(cc1CCCN1CCCC1)OCO2 | % | 31 |
| CCN(CC)C/C=C/c1ccc2c(c1)OCO2 | % | 70 |
| O=C(CCc1cc2c(cc1Br)OCO2)N1CCCC1 | % | 0 |
| c1cc2c(cc1CCCN1CCCC1)OCO2 | % | 19 |
| O=C(CCc1ccc2c(c1)OCO2)N1CCCC1 | % | 0 |

====

target: D3 receptor (Homo sapiens, UniProt P35462); construct: host or cells: CHO cells (membrane preparation); assay: Eurofins Cerep competition binding assay at D3 receptor; conditions: 10 μM test ligand; [3H]methylspiperone; recombinant receptor in CHO cells; read-out: D3, percent of control-specific binding
Sequence (P35462 whole entry): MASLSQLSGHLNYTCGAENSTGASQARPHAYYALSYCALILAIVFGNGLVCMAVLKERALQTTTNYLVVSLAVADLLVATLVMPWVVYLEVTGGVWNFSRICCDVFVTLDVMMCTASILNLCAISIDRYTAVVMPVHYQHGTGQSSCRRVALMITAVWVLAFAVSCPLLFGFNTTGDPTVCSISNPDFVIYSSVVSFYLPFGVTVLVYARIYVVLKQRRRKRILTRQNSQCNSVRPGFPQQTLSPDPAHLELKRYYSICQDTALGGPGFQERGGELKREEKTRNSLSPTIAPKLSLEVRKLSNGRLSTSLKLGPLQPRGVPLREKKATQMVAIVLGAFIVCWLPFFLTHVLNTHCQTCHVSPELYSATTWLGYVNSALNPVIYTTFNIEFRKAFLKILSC

| molecule | unit_info | inhibition at 10 µM |
| --- | --- | --- |
| C/C(=C\c1ccc2c(c1)OCO2)CN1CCCC1 [B(II)] | % | 55 |
| CCCOc1c(OC)cc(CCN)cc1OC [proscaline] | % | 4 |
| CNCC[C@H](Oc1cccc2ccccc12)c1cccs1 [Duloxetine] | % | 66 |

====

biological target: 5-HT2C receptor (Homo sapiens, UniProt P28335); construct: host or cells: HEK-293 cells (membrane preparation); assay: Eurofins Cerep competition binding assay at 5-HT2C receptor; conditions: 10 μM test ligand; [125I](±)DOI; recombinant receptor in HEK-293 cells; read-out: HT2C, percent of control-specific binding
Sequence (P28335 33-458): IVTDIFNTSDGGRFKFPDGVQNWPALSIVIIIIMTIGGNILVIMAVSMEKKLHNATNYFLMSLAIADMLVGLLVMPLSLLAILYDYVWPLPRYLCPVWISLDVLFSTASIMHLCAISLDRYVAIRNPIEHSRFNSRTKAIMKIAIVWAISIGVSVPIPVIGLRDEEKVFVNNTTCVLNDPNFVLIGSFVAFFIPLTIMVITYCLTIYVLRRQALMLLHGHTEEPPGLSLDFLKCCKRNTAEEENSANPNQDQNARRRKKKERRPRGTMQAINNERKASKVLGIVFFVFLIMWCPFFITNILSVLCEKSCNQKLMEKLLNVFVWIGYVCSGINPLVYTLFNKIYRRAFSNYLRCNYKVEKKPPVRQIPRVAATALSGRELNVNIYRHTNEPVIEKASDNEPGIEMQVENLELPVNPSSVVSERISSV
// inhibition at 10 µM lookup, one value per entry

| compound | inhibition at 10 µM [%] |
| --- | --- |
| O=C(CCc1cc2c(cc1Br)OCO2)N1CCCC1 [F(IV)] | 8 |
| c1cc2c(cc1CCCN1CCCC1)OCO2 [C(III)] | 33 |
| C/C(=C\c1ccc2c(c1)OCO2)CN1CCCC1 [B(II)] | 45 |
| CCN(CC)C/C=C/c1ccc2c(c1)OCO2 [D(I)] | 33 |

====

biological target: D3 receptor (Homo sapiens, UniProt P35462); construct: host or cells: CHO cells (membrane preparation); assay: Eurofins Cerep competition binding assay at D3 receptor; conditions: 10 μM test ligand; [3H]methylspiperone; recombinant receptor in CHO cells; read-out: D3, percent of control-specific binding

| compound | inhibition at 10 µM (%) |
| --- | --- |
| O=C(CCc1cc2c(cc1Br)OCO2)N1CCCC1 [F(IV)] | 12 |
| O=C(CCc1ccc2c(c1)OCO2)N1CCCC1 [F(III)] | 0 |
| Brc1cc2c(cc1CCCN1CCCC1)OCO2 [C(IV)] | 61 |
| CCN(CC)C/C=C/c1ccc2c(c1)OCO2 [D(I)] | 21 |
| O=c1n(CCCN2CCN(c3cccc(Cl)c3)CC2)nc2ccccn12 [Trazodone] | 89 |
